target: HCV polymerase (Hepatitis C virus genotype 1b); construct: a region encoding NS5B (J Virol 1991 March, 65(3), 1105-13, 544 amino acids after deletion of 47 amino acids on the C-terminal); 6xHis (C); made in house; host or cells: Escherichia coli; assay: biochemical; parameters: species or system HCV BK strain
Counter-ions that a name gives are not always drawn.
Result type: IC50

The following compounds have reported results that may help.
{"Compound": "CC1CCCN1CCCN1CCn2c(c(C3CCCCC3)c3ccc(C(=O)O)cc32)-c2ccc(Cl)cc21 (stereo not shown)", "IC50": "< 100 nM"}
{"Compound": "COC(=O)NCCOc1ccc2c(c1)OCCn1c-2c(C2CCCCC2)c2ccc(C(=O)O)cc21", "IC50": "< 100 nM"}
{"Compound": "O=C(O)c1ccc2c(C3CCCCC3)c3n(c2c1)CCCn1cccc1-3", "IC50": "100 to 1000 nM"}
{"Compound": "Cc1cc(COc2ccc3c(c2)N(CCN2CCCCC2)CCn2c-3c(C3CCCCC3)c3ccc(C(=O)O)cc32)no1 [Example 1-363, dihydrochloride]", "IC50": "< 100 nM"}
{"Compound": "COc1ccc2c(c1)OCCn1c-2c(C2CCCCC2)c2ccc(C(=O)N[C@@H](Cc3ccc(OC(C)=O)cc3)C3=NC(C)(C)C(=O)O3)cc21", "IC50": "< 100 nM"}

Request: Query for HCV polymerase (Hepatitis C virus genotype 1b): what IC50 does the record show for `Cc1ccc2c(c1)N(C)CCn1c-2c(C2CCCCC2)c2ccc(C(=O)O)c(Cl)c21` ?
Result: < 100 nM

Request: Query for HCV polymerase (Hepatitis C virus genotype 1b): what IC50 does the record show for `COc1ccc2c(c1)N(C(C)C)CCn1c-2c(C2CCCCC2)c2ccc(C(=O)NC3(C(=O)Nc4ccc(/C=C/C(=O)O)cc4)CCC3)cc21` ?
Result: < 100 nM

----------
molecular target: HCV polymerase (Hepatitis C virus genotype 1b, UniProt P26663); construct: a region encoding NS5B (J Virol 1991 March, 65(3), 1105-13, 544 amino acids after deletion of 47 amino acids on the C-terminal); 6xHis (C); made in house; host or cells: Escherichia coli; assay: biochemical; parameters: species or system HCV BK strain
Sequence (P26663 2420-2963): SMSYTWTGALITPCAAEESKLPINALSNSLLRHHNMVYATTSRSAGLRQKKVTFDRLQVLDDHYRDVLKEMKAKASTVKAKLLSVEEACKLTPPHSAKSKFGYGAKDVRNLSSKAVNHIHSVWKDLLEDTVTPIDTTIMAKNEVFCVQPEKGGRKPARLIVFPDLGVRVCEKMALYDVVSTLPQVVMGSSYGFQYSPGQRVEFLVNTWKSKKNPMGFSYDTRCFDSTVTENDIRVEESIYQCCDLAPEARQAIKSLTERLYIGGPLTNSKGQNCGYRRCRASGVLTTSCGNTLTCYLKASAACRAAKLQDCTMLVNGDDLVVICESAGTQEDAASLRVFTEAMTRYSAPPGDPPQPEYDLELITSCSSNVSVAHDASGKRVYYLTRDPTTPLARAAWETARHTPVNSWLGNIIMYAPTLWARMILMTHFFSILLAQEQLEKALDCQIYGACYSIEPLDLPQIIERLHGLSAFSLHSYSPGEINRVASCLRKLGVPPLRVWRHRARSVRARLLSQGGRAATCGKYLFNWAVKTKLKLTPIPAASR
pIC50: −log10 of the molar value. Where a name gives a salt, the structure may show the parent alone.
Result type: pIC50

The following compounds have reported results that may help.
{"Compound": "COCC1CCCCN(CCN2CCn3c(c(C4CCCCC4)c4ccc(C(=O)O)cc43)-c3ccc(C)cc32)C1 (stereo not drawn) [Example 1-551, dihydrochloride]", "Study system": "HCV polymerase (Hepatitis C virus genotype 1b, UniProt P26663)", "pIC50": "> 7.00"}
{"Compound": "CCN1CCN(C(=O)CN2CCn3c(c(C4CCCCC4)c4ccc(C(=O)O)cc43)-c3ccc(F)cc32)CC1 [Example 1-162, dihydrochloride]", "Study system": "HCV polymerase (Hepatitis C virus genotype 1b, UniProt P26663)", "pIC50": "> 7.00"}

# input for lookup
Request: I have this compound here, CN(C)CCN1CCn2c(c(C3CCCCC3)c3ccc(C(=O)O)cc32)-c2ccc(OCc3cccc(N)c3)cc21 [Example 1-578, trihydrochloride] , and I need its recorded pIC50.
Result: > 7.00
